system.name: dopamine D1 receptors (Bos taurus)
Sequence (Q95136 whole entry): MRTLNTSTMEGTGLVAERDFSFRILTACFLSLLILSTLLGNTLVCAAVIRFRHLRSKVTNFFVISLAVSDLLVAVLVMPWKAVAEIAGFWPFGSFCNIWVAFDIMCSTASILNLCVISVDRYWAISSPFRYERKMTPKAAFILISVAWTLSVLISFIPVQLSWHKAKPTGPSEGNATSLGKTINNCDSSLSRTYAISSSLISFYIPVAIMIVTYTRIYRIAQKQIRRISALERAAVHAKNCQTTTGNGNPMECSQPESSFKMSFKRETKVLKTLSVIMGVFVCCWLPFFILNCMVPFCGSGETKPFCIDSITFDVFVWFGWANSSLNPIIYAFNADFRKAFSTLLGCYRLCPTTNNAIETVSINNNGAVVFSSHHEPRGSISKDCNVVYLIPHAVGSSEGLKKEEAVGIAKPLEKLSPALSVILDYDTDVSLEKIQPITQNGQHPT
assay.remarks: Radioligand binding to dopamine D1 receptors ([3H]-SCH23390, bovine caudate nuclei)
condition.parameters: 15 minutes at 37° C., two-site fitted model, read-out: D1 (pK1) (converted)
Where a name gives a salt, the structure may show the parent alone.
endpoint.name: Ki (µM)

Use the examples below as a reference point.
{"columns": ["molecule", "Ki (µM)"],
 "data": [
  ["CCCN(CCSc1ccccc1)C1CCc2c(O)cccc2C1 (centres unmarked)", 1.29],
  ["CCCN(CC(c1ccccc1)c1ccccc1)C1CCc2c(O)cccc2C1 (centres unmarked)", 9.12],
  ["CCCN(CCC(c1ccccc1)c1ccccc1)C1CCc2c(O)cccc2C1 (centres unmarked)", 1.38],
  ["CCCN(CCOc1cccc(F)c1)C1CCc2c(O)cccc2C1 (centres unmarked)", 10.5],
  ["CCCN(CCOc1ccccc1)C1CCc2c(O)cccc2C1 (centres unmarked) [Example 2]", 12]
]}

(A) CCCN(CC[C@@H]1OC(=O)c2ccccc21)[C@H]1CCc2c(O)cccc2C1
(B) CCCN(CCOc1ccccc1)C1CCc2c(O)cccc2C1 (single isomer, unassigned; (-)) [Example 30]
(C) CCCN(CCC1OC(=O)c2ccccc21)C1CCc2c(O)cccc2C1 (centres unmarked)
(D) CCCN(CCOc1cccc2ccccc12)C1CCc2c(O)cccc2C1 (centres unmarked) [Example 48, hydrochloride]
(E) CCCN(CCOc1ccc2ccccc2c1)C1CCc2c(O)cccc2C1 (centres unmarked)
stdin: Put the items in sequence by Ki, from largest down. Rank the items, then write their labels in that order.
stdout: D, B, E, C, A
(D: 13.5 µM, B: 8.71 µM, E: 4.17 µM, C: 2.14 µM, A: 1.23 µM)
